Each entry below lists one item and its recorded MPV D280 Neutralization - IC50 value.
target: fusion glycoprotein of the MPV D280 used in the neutralization assay of Example 3 (metapneumovirus (strain )); assay: cell-based or functional assay
// note: answer is a bare numeric in ng/mL

// below: answered binders
{"Binder": "MPK204 (antibody, V domains shown) VH: QVQLVESGGGLVKPGGSLRLSCEASGLSLSGYYMIWIRQAPGKGLEWISSISSSSNYIDYADSVKGRFTISRHNGQNTLYLQMNSLRVEDTAVYYCATEQTPSPGPFDLWGQGTLVTVSS VL: QSVLTQPPSVSGAPGQRVTISCTGTSSNIGTGYDVHWYQQFPGTSPKLLIYRNTNRPSGVPDRFSGSKSGSSASLAIAGLQAEDEADYYCQSYDRSVSGWVFGGGTKLTVL", "Unit annotation": "ng/mL", "MPV D280 Neutralization - IC50": 6}
{"Binder": "MPK133 (antibody, V domains shown) VH: QVQLVQSGGGLVKPGGSLRLSCAASEFSFSGYFMIWIRQAPGKGLEWISYISGSSTYTNYADSVKGRFTISRDNAQNTLYLEMNSLRAEDTGVYYCATEQVPSPGPFDLWGQGTLVTVSS VL: QSVLTQPPSVSGAPGQRVTISCTGSSSNIGAGYDVHWYQQFPGRSPTLLIYRNTNRPSGVPDRFSGSQSGSSASLAITGLQAEDEADYYCQSYDRTLSGWAFGGGTKVTVL", "Unit annotation": "ng/mL", "MPV D280 Neutralization - IC50": 3.5}
{"Binder": "MPK158 (antibody, V domains shown) VH: EVQLVESGGGLVKPGGSLRLSCAASGFSISGFYMIWIRQAPGKGLEWISDISASSSYIDYADSVKGRFTISRDNGQNTVHLLMNNLRADDTGVYYCAREQTPSPGPFDLWGQGTLVTVST VL: QPVLTQPPSVSGAPGQRVTISCTGRSSNIGAGYDVHWYQHLPGTSPKLLIYRNSNRPSGVPDRFSGSTSGTSASLAITGLQADDEADYYCQAYDRILGGWAFGGGTKLTVL", "Unit annotation": "ng/mL", "MPV D280 Neutralization - IC50": 6}
{"Binder": "MPK146 (antibody, V domains shown) VH: QVQLVESGGGLVKPGGSLRLSCAASGFTFSGYYMIWIRQAPGKGLEWIASISGSSNYIDYADSVRGRFTISRDNARNILDLQMNSLRAGDTALYYCATEQVPSPGPFDLWGQGTLVTVSS VL: QSVLTQPPSVSGAPGQRVTISCTGSNSNLGAGYDVHWYQQFPGTSPKLLIYRNTNRPSGVPDRFAGSKSGTSASLAITGLQAEDEADYYCQSYDRSLSGWVFGGGTKLTVL", "Unit annotation": "ng/mL", "MPV D280 Neutralization - IC50": 5.4}

In: Endpoint output: MPV D280 Neutralization - IC50 of MPK130 (antibody, V domains shown) VH: EVQLVESGGGLVKPGGSLTLSCEASGFSISGYYMIWVRQAPGKGLEWVSSISASDTYIDYAVSVQGRFTISRHNTKNSLYLQMSSLRVEDTGVYYCTREKVPSPGPFDCWGQGTLVTVSS VL: QSVLTQPPSVSGAPGQRITISCTGTSSNIGAGYDVHWYQHLPGAAPRLLIYVNTNRPSGVPDRFSGARSGTSASLAITGLQAEDEADYYCQSYDRSLGGWAFGEGTKVTVL . Value?
Out: 4.3
